assayExplanation: Quantitative High-Throughput drug screen in 47 multiple myeloma cell lines against the NCATS MIPE library collection: AMO1_DSMZ cell viability assay (AID 1918927; also: nearly all actives have a fitted effect of over 30% in size)
experimentalSetup: AMO1 myeloma cells viability, CellTiter-Glo ATP luminescence, 48 h; series mostly up to 45.8 µM
Results filed as inconclusive are left out. Activity calls are given as the source filed them. Calls follow the shape of the dose curve; as a rule, active = well fitted cell-killing curve with a large enough effect; inconclusive = small, poorly fitted or top-dose-only effect, or effect the other way; inactive = no such curve, though single readings can be large or run the other way. Peptide text beside a SMILES is read from it.
Outcomes: T (active), F (inactive)

- compound: "Cc1nc2n(c(=O)c1CCN1CCC(c3noc4cc(F)ccc34)CC1)CCCC2"
  label: "F"
- compound: "COC1=C(OC)C(=O)C(CCCCCCCCCCO)=C(C)C1=O"
  label: "T"
- compound: "Cc1nc(Nc2ncc(C(=O)Nc3c(C)cccc3Cl)s2)cc(N2CCN(CCO)CC2)n1"
  label: "T"
- compound: "O=C(O)c1cccnc1Nc1cccc(C(F)(F)F)c1"
  label: "F"
- compound: "Oc1ccc(-c2nc(-c3ccc(F)cc3)c(-c3ccncc3)[nH]2)cc1"
  label: "F"
- compound: "COC(=O)[C@H](Cc1ccccc1)NC(=O)[C@@H](N)CC(=O)O (H-Asp-Phe-OMe)"
  label: "F"
- compound: "O=C(O)c1cccc(-c2noc(-c3ccccc3F)n2)c1"
  label: "F"
- compound: "Cc1c(C(=O)NN2CCCCC2)nn(-c2ccc(Cl)cc2Cl)c1-c1ccc(Cl)cc1"
  label: "T"

----------
Measured max response values are reported for all entries that follow.
Tested on: CRL-7250
assayExplanation: Cytotoxic Profiling of Annotated Libraries Using Quantitative High-Throughput Screening (AID 1296008); also: % is scaled to controls: 0 for no effect and ±100 for the full control effect; nearly all actives have a fitted effect of over 60% in size
experimentalSetup: Five cell lines viability, CellTiter-Glo ATP luminescence, 48-72 h; hits give low values
Inconclusive results are not listed. Non-standard residues stand in square brackets, D forms with d. Residues, ends and D or L forms follow the SMILES beside them. *: point of attachment. Sta = CC(C)C[C@H](N)[C@@H](O)CC(=O)O; Isovaleryl = CC(C)CC(=O)*
measureName: max response (%)

- molecule: "CC1(C)NC(=O)N(c2ccc([N+](=O)[O-])c(C(F)(F)F)c2)C1=O"
  reportedValue: -12.3
- molecule: "Cc1ncc([N+](=O)[O-])n1CC(C)O (stereo not drawn)"
  reportedValue: -19.5
- molecule: "COC(=O)C1=C(C)NC(C)=C(C(=O)OC(C)C)C1c1cccc2nonc12 (stereo not drawn)"
  reportedValue: -24.3
- molecule: "Clc1ccc2c(N3CCN(CCCN4CCN(c5ccnc6cc(Cl)ccc56)CC4)CC3)ccnc2c1"
  reportedValue: -5.75
- molecule: "O=c1c(O)c(-c2cc(O)c(O)c(O)c2)oc2cc(O)cc(O)c12"
  reportedValue: 3.08
- molecule: "Cc1ccc(NC(=O)c2ccc(CN3CCN(C)CC3)cc2)cc1Nc1nccc(-c2cccnc2)n1"
  reportedValue: -2.19
- molecule: "Cc1cc(Cl)ccc1OCCCC(=O)NO"
  reportedValue: -2.51
- molecule: "Cc1cccc(CN2CCN(C(c3ccccc3)c3ccc(Cl)cc3)CC2)c1 (stereo not drawn)"
  reportedValue: -2.17
- molecule: "CCN(CC)CCOc1ccc(Cc2ccccc2)cc1"
  reportedValue: -29.7
- molecule: "Nc1cc(C(Cl)=C(Cl)Cl)c(S(N)(=O)=O)cc1S(N)(=O)=O"
  reportedValue: -8.91
- molecule: "CC(C)[N+]1(C)[C@@H]2CC[C@H]1CC(OC(=O)C(CO)c1ccccc1)C2 (stereo partly drawn)"
  reportedValue: 2.83
- molecule: "COC1=C(OC)C(=O)C(CCCCCCCCCCO)=C(C)C1=O"
  reportedValue: -2.47
- molecule: "CCc1nc(N)nc(N)c1-c1ccc(Cl)cc1"
  reportedValue: -18.3
- molecule: "O=C(NCC1CCCCN1)c1cc(OCC(F)(F)F)ccc1OCC(F)(F)F (stereo not drawn)"
  reportedValue: -77.3
- molecule: "CC1(C)CCC(C)(C)c2cc(NC(=O)c3ccc(C(=O)O)cc3)ccc21"
  reportedValue: 0.132
- molecule: "COC(=O)N[C@H](C(=O)N[C@@H](Cc1ccccc1)[C@@H](O)CN(Cc1ccc(-c2ccccn2)cc1)NC(=O)[C@@H](NC(=O)OC)C(C)(C)C)C(C)(C)C"
  reportedValue: -0.779
- molecule: "NCCCCNCCCN"
  reportedValue: -45.5
- molecule: "CCC[C@@H]1C[C@@H](C(=O)N[C@@H]([C@H]2O[C@H](SC)[C@H](O)[C@@H](O)[C@H]2O)[C@@H](C)O)N(C)C1"
  reportedValue: -16.2
- molecule: "CC1(C)C(=O)N(CCN2CCC(C(=O)c3ccc(F)cc3)CC2)c2ccccc21"
  reportedValue: 0.499
- molecule: "Oc1ccc(-c2nc(-c3ccc(F)cc3)c(-c3ccncc3)[nH]2)cc1"
  reportedValue: -11.9
- molecule: "Cc1ccc(C(=O)c2cc(O)c(O)c([N+](=O)[O-])c2)cc1"
  reportedValue: -7.14
- molecule: "O=C(NC(Cc1cc(=O)[nH]c2ccccc12)C(=O)O)c1ccc(Cl)cc1 (stereo not drawn)"
  reportedValue: -2.81
- molecule: "O=C(OC1C[C@H]2CC[C@@H](C1)[N+]21CCCC1)C(O)(c1ccccc1)c1ccccc1 (stereo partly drawn)"
  reportedValue: 4.02
- molecule: "CC(=O)NC[C@H]1CN(c2ccc(N3CCOCC3)c(F)c2)C(=O)O1"
  reportedValue: -4.05
- molecule: "C[C@H](Cn1cnc2c(N)ncnc21)OCP(=O)(O)O"
  reportedValue: 3.36
- molecule: "Clc1ccc(C(Cn2ccnc2)OCc2c(Cl)cccc2Cl)c(Cl)c1 (stereo not drawn)"
  reportedValue: -2.52
- molecule: "O=c1oc2cc(O)ccc2s1"
  reportedValue: 4.4
- molecule: "C[C@]12CCC(=O)C=C1CC[C@@H]1[C@H]2[C@@H](O)C[C@@]2(C)[C@H]1CC[C@]2(O)C(=O)CO"
  reportedValue: -1.54
- molecule: "Cc1c(C(=O)NN2CCCCC2)nn(-c2ccc(Cl)cc2Cl)c1-c1ccc(Cl)cc1"
  reportedValue: -1.95
- molecule: "CCOC(=O)C(C)Oc1cccc2c(=O)n(CC(=O)Nc3ccc4c(c3)OCCO4)ccc12 (stereo not drawn)"
  reportedValue: 3.46
- molecule: "CCOC(=O)C1=C(O)C(=O)N(Cc2ccccc2)C1"
  reportedValue: 2.77
- molecule: "CC(C)CC(=O)N[C@H](C(=O)N[C@H](C(=O)N[C@@H](CC(C)C)[C@@H](O)CC(=O)N[C@@H](C)C(=O)N[C@@H](CC(C)C)[C@@H](O)CC(=O)O)C(C)C)C(C)C (Isovaleryl-VV[Sta]A[Sta]-OH)"
  reportedValue: 0.655
- molecule: "O=C(NOCC1CC1)c1ccc(F)c(F)c1Nc1ccc(I)cc1Cl"
  reportedValue: -12.6

----------
assayExplanation: qHTS to identify inhibitors of the type 1 interferon - major histocompatibility complex class I in skeletal muscle: primary screen against the NCATS Mechanism Interrogation Plate v5.0 (MIPE) Libary (AID 1347411); also: nearly all actives have a fitted effect of over 65% in size
experimentalSetup: iHSKM cells + IFN-b, HiBiT-tagged MHC-I luminescence, 24 h; series mostly up to 45.8 µM
Inconclusive results are not listed. Active and inactive are the calls of the source. The call rests on the fitted dose curve; in most records, active means well fitted inhibition curve with a large enough effect; inconclusive means small, poorly fitted or top-dose-only effect; inactive means no such curve, though single readings can be large or run the other way.
Outcomes: 1 (yes) (active), 0 (no) (inactive)

- compoundStructureString: "CC(C)[C@H](N)C(=O)OCCOCn1cnc2c(=O)[nH]c(N)nc21"
  label: "0 (no)"
- compoundStructureString: "CC(=O)N1CCN(c2ccc(OC[C@H]3CO[C@](Cn4ccnc4)(c4ccc(Cl)cc4Cl)O3)cc2)CC1"
  label: "0 (no)"
- compoundStructureString: "CC(C)C[C@H](NC(=O)[C@H](Cc1ccccc1)NC(=O)c1cnccn1)B(O)O"
  label: "1 (yes)"

----------
assayExplanation: qHTS of pediatric cancer cell lines to identify multiple opportunities for drug repurposing: Confirmatory screen for BT-37 cells (AID 1347117);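 also: viability measured after 48 h of compound exposure; nearly all actives have a fitted effect of over 55% in size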
experimentalSetup: BT-37 pediatric cancer cells, viability; series mostly up to 45.9 µM
Records with an inconclusive call do not appear. Active and inactive are the calls of the source. The call rests on the fitted dose curve; in most records, active means well fitted cell-killing curve with a large enough effect; inconclusive means small, poorly fitted or top-dose-only effect; inactive means no such curve, though single readings can be large or run the other way.
Outcomes: active, inactive

- molecule: "CCN(CCO)CCCC(C)Nc1ccnc2cc(Cl)ccc12 (centres undefined)"
  label: "inactive"
- molecule: "Clc1ccc(C(Cn2ccnc2)OCc2ccc(Sc3ccccc3)cc2)c(Cl)c1 (centres undefined)"
  label: "active"
- molecule: "CC1(C)C(=O)N(CCN2CCC(C(=O)c3ccc(F)cc3)CC2)c2ccccc21"
  label: "inactive"
- molecule: "CCCCc1ccc2nc(NC(=O)OC)[nH]c2c1"
  label: "active"
- molecule: "Cc1ccc(Nc2nccc(N(C)c3ccc4c(C)n(C)nc4c3)n2)cc1S(N)(=O)=O"
  label: "inactive"
- molecule: "Clc1ccc(C(Cn2ccnc2)OCc2ccsc2Cl)c(Cl)c1 (centres undefined)"
  label: "active"
- molecule: "c1cnc2cc3c(cc2n1)C1CNCC3C1"
  label: "inactive"
- molecule: "CCc1nc(N)nc(N)c1-c1ccc(Cl)cc1"
  label: "active"
- molecule: "CCOc1cc(CC(=O)N[C@@H](CC(C)C)c2ccccc2N2CCCCC2)ccc1C(=O)O"
  label: "inactive"
